Target: SMARCA4 (Homo sapiens)
Test: HiBit assay in engineered HT1080 CRISPR knock-in cell, 6 hrs (B series), SMARCA4
Type: cell-based
Conditions: HT1080 CRISPR knock-in cells, 6 hrs incubation; read-out: SMARC A4 HT1080 HiBit DC50
Hi there, I'd appreciate the recorded DC50 for every entry that follows.

Observe how each entry below is paired with its result.
Cc1cc(C(C(=O)N2C[C@H](O)C[C@H]2C(=O)N[C@@H](CCCCCN2CCC(c3ccc4c(c3)C(C)(C)c3nc(=O)c5c(Cl)cccc5n3-4)CC2)c2ccc(-c3scnc3C)cc2)C(C)C)on1 (stereo partly drawn) [Compound B85] has a reported DC50 of < 100 nM

Measured DC50 of C[C@H](NC(=O)[C@@H]1C[C@@H](O)CN1C(=O)[C@@H](NC(=O)[C@H]1CC[C@H](C(=O)N2CCC(c3ccc4c(c3)-n3c(nc(=O)c5c(Cl)cccc53)C4(C)C)CC2)CC1)C(C)(C)C)c1ccc(-c2ncnn2C)cc1 [Compound B65] : > 1000 nM

The compound listed as Cc1ncsc1-c1ccc(C2(NC(=O)[C@@H]3C[C@@H](O)CN3C(=O)[C@@H](n3cc([C@H]4CC[C@H](CN5CCC(c6ccc7c(c6)-n6c(nc(=O)c8c(Cl)cccc86)C7(C)C)CC5)CC4)nn3)C(C)(C)C)CNC2)cc1 [Compound B113] has a reported DC50 of 501 to 1000 nM

The reported value for Cc1ncsc1-c1ccc([C@H](C)NC(=O)[C@@H]2C[C@@H](O)CN2C(=O)[C@@H](c2cc(OCCc3cccc4c3C(C)(C)c3nc(=O)c5c(Cl)cccc5n3-4)no2)C(C)C)cc1 [Compound B116] in terms of DC50 is > 1000 nM

// CNC(=O)[C@@H]1C[C@@H](O)CN1C(=O)[C@H](C(C)C)n1cc([C@H]2CC[C@H](CN3CCC(c4ccc5c(c4)-n4c(nc(=O)c6c(Cl)cccc64)C5(C)C)CC3)CC2)nn1 [Compound B59] : DC50 value = > 1000 nM

Please supply DC50 for each of the following items, keeping them in order.
1. Cc1ncsc1-c1ccc([C@H](C)NC(=O)[C@@H]2C[C@@H](O)CN2C(=O)[C@@H](c2cc(N3CCC(CN4CCN(c5ccc6c(c5)-n5c(nc(=O)c7c(Cl)cccc75)C6(C)C)CC4)CC3)no2)C(C)C)cc1 [Compound B111]
2. Cc1ncsc1-c1ccc([C@H](CN2CCOCC2)NC(=O)[C@@H]2C[C@@H](O)CN2C(=O)[C@@H](c2cc(O[C@H]3CC[C@H](CN4CCN(c5ccc6c(c5)-n5c(nc(=O)c7c(Cl)cccc75)C65CCCCC5)CC4)CC3)no2)C(C)C)cc1 [Compound B138]
3. Cc1ncsc1-c1ccc([C@H](C)NC(=O)[C@@H]2C[C@@H](O)CN2C(=O)[C@@H](NC(=O)CCCN2CCC(c3ccc4c(c3)-n3c(nc(=O)c5c(Cl)cccc53)C4(C)C)CC2)C(C)(C)C)cc1 [Compound B45]
4. Cc1ncsc1-c1ccc([C@H](C)NC(=O)[C@@H]2C[C@@H](O)CN2C(=O)[C@@H](c2cc(OC3CCC(Cn4cc(-c5ccc6c(c5)-n5c(nc(=O)c7c(Cl)cccc75)C6(C)C)cn4)CC3)no2)C(C)C)cc1 (stereo partly drawn) [Compound B96]

## Result
1. < 100 nM
2. < 100 nM
3. > 1000 nM
4. 100 to 500 nM

----------
Could you please report measured Dmax for the items listed next?
Target: SMARCA4 (Homo sapiens)
Test: HiBiT assay for protein degradation, Hela SMARCA4-HiBiT cells (A series)
Assay type: cell-based
Parameters: fuse HiBiT to the carboxy terminus of SMARCA2 (Promega CS302365) or SMARCA4 (Promega CS3023225); host or cells: HeLa (CRISPR/Cas9 HiBiT knock-in)
Settings: Hela SMARCA4-HiBiT cells, 24 hours treatment; read-out: SMARC A4 Hela HiBit Dmax

See these solved cases before continuing.
Quick note, Dmax for Cc1ncsc1-c1ccc([C@H](CC(=O)N2CCC(c3ccc4c(c3)-n3c(nc(=O)c5c(Cl)cccc53)C43CCCCC3)CC2)NC(=O)[C@@H]2C[C@@H](O)CN2C(=O)[C@@H](n2cc(C3CC3)nn2)C(C)(C)C)cc1 landed at < 50%

Summary for this compound, Cc1ncsc1-c1ccc([C@H](C)NC(=O)[C@@H]2C[C@@H](O)CN2C(=O)[C@H](C2CCN(C(=O)CCCCN3CCC(c4ccc5c(c4)-n4c(nc(=O)c6c(Cl)cccc64)C54CCCCC4)CC3)CC2)n2cc(C3CC3)nn2)cc1 : Dmax is < 50%

// Cc1ncsc1-c1ccc([C@H](C)NC(=O)[C@@H]2C[C@@H](O)CN2C(=O)[C@H](C2CCCCC2)n2cc([C@H]3CC[C@H](CN4CCC(c5ccc6c(c5)-n5c(nc(=O)c7c(Cl)cccc75)C65CCCCC5)CC4)CC3)nn2)cc1 : Dmax value = 50 to 69%

Could you now look at the following compound, please?
Summary for this compound, CC(C)(C)[C@@H](C(=O)N1C[C@H](O)C[C@H]1C(=O)N[C@@H](CN1CCOCC1)c1ccc(-c2ccncc2)cc1)n1cc([C@H]2CC[C@H](CN3CCC(c4ccc5c(c4)-n4c(nc(=O)c6c(Cl)cccc64)C54CCCCC4)CC3)CC2)nn1 : Dmax is < 50%

----------
Molecular target: SMARCA2 (Homo sapiens, UniProt P51531)
Sequence (P51531 whole entry): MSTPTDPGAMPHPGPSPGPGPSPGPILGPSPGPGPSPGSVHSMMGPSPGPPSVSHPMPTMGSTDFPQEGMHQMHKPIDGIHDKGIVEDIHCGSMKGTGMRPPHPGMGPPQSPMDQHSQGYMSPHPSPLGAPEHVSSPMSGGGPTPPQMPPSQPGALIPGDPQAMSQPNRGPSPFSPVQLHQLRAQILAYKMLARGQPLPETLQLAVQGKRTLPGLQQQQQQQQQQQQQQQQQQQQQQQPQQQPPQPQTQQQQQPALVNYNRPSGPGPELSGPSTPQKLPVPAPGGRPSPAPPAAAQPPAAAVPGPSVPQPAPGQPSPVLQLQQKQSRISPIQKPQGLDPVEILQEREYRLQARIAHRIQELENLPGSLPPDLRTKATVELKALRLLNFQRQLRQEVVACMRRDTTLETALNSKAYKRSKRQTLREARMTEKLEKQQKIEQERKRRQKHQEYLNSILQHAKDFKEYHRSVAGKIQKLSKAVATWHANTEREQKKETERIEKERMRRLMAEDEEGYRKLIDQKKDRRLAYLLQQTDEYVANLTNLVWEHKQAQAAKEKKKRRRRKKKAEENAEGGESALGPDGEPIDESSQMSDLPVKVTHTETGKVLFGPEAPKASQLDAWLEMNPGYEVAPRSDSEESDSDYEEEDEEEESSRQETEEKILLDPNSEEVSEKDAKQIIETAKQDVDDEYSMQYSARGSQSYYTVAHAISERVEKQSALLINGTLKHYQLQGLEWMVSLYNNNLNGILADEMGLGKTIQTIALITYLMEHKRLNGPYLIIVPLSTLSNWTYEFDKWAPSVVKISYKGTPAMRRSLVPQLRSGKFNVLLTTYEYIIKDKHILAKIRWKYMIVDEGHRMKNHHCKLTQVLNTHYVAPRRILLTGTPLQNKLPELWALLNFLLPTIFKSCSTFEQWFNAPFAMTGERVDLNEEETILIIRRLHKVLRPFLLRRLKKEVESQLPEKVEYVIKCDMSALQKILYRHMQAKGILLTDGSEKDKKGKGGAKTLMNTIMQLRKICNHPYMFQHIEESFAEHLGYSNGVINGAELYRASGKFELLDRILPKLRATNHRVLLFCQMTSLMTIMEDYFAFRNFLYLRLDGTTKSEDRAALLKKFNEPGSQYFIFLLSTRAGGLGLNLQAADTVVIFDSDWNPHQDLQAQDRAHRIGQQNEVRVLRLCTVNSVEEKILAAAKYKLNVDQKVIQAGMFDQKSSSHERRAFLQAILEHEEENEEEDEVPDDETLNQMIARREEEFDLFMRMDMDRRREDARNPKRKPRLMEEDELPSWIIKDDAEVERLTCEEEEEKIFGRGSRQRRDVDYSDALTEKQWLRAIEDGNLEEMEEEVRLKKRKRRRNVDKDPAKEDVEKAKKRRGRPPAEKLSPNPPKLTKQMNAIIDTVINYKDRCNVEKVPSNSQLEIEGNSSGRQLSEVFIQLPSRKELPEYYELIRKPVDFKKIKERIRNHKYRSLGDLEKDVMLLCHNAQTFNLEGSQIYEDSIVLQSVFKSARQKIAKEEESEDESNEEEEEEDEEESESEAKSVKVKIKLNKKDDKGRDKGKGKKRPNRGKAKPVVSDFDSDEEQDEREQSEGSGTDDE
Test: HiBit assay in engineered HT1080 CRISPR knock-in cell, 6 hrs (B series), SMARCA2
Type: cell-based
Details: HT-1080, HT1080 CRISPR knock-in cells, 6 hrs incubation; read-out: SMARC A2 HT1080 HiBit Dmax (%)
Answer each item with its documented Dmax.

# annotated cases, reported Dmax shown
Dmax reported for this compound Cc1ncsc1-c1ccc([C@H](C)NC(=O)[C@@H]2C[C@@H](O)CN2C(=O)[C@@H](c2cc(OC3CCC(CN4CCC(c5ccc6c(c5)C(C)(C)c5nc(=O)c7c(Cl)cccc7n5-6)CC4)CC3)no2)C(C)C)cc1 (stereo partly shown) : > 90%

Field Dmax (entry Cc1ncsc1-c1ccc([C@H](CCCCCn2cc(-c3ccc4c(c3)C(C)(C)c3nc(=O)c5c(Cl)cccc5n3-4)cn2)NC(=O)[C@@H]2C[C@@H](O)CN2C(=O)[C@@H](NC(=O)C2(F)CC2)C(C)(C)C)cc1 ) reads < 50%

Entry Cc1nc(C)c(-c2ccc([C@H](C)NC(=O)[C@@H]3C[C@@H](O)CN3C(=O)[C@@H](n3cc([C@H]4CC[C@H](CN5CCC(c6ccc7c(c6)-n6c(nc(=O)c8c(Cl)cccc86)C7(C)C)CC5)CC4)nn3)C(C)(C)C)cc2)s1 ; Dmax = > 90%

Now let's try a different one.
Noted for Cc1nc(C)c(-c2ccc([C@H](C)NC(=O)[C@@H]3C[C@@H](O)CN3C(=O)[C@@H](n3cc([C@H]4CC[C@H](CN5CCN(c6ccc7c(c6)-n6c(nc(=O)c8c(Cl)cccc86)C7(C)C)CC5)CC4)nn3)C(C)(C)C)cc2)s1 : its Dmax reads > 90%

----------
Target: SMARCA4 (Homo sapiens, UniProt P51532)
Sequence (P51532 whole entry): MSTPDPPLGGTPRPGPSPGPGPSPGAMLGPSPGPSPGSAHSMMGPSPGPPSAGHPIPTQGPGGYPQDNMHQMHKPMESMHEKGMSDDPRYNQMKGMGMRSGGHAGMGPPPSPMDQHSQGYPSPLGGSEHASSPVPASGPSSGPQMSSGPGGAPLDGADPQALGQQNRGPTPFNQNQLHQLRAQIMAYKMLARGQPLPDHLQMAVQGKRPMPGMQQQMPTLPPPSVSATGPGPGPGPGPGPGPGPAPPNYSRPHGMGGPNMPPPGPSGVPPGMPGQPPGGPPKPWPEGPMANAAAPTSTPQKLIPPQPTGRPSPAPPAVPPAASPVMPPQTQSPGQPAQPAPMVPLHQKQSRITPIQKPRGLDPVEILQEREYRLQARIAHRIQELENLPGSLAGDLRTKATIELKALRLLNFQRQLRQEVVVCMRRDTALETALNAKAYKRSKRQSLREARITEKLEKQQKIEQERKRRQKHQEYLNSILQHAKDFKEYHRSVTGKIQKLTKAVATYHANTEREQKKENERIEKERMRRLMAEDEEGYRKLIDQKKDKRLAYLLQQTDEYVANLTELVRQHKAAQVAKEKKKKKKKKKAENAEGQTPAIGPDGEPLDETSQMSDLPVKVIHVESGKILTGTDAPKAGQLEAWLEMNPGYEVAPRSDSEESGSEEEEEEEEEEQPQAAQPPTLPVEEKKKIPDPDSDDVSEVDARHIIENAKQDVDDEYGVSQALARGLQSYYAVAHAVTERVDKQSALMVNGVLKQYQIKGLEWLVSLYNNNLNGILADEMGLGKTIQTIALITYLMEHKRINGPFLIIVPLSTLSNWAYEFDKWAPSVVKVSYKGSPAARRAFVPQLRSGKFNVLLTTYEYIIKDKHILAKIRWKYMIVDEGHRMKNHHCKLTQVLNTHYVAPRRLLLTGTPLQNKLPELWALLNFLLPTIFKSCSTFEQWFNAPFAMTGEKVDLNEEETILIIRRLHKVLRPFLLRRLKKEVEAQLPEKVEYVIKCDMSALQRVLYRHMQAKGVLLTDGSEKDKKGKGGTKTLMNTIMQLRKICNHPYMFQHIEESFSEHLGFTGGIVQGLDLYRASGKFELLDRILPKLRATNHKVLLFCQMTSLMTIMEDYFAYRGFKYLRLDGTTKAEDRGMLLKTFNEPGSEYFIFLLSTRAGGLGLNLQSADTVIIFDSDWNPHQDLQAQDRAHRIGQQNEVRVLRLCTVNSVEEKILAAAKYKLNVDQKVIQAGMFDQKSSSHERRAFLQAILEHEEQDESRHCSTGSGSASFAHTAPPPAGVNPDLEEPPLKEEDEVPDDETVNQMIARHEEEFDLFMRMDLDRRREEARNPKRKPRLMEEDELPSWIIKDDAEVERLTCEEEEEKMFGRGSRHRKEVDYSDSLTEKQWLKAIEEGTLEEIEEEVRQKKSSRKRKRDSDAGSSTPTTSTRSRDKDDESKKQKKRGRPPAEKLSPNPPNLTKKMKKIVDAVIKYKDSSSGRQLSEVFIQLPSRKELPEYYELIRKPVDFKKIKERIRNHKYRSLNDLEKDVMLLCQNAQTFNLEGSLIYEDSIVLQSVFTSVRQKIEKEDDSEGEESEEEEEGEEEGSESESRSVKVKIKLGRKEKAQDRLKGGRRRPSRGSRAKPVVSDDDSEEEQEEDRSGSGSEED
Experiment: HiBit assay in engineered HT1080 CRISPR knock-in cell, 6 hrs (B series), SMARCA4
Assay type: cell-based
Settings: HT1080 CRISPR knock-in cells, 6 hrs incubation; read-out: SMARC A4 HT1080 HiBit DC50
resultType: DC50

Some solved cases for reference:
Quick note, DC50 for CC(C)[C@@H](C(=O)N1C[C@H](O)C[C@H]1C(=O)N[C@@H](C)c1ccc(-c2scnc2C#CCN2CCOCC2)cc1)n1cc([C@H]2CC[C@H](CN3CCN(c4ccc5c(c4)-n4c(nc(=O)c6c(Cl)cccc64)C5(C)C)CC3)CC2)nn1 landed at < 100 nM

Lookup result for Cc1ncoc1-c1ccc([C@H](C)NC(=O)[C@@H]2C[C@@H](O)CN2C(=O)[C@@H](n2cc([C@H]3CC[C@H](CN4CCN(c5ccc6c(c5)-n5c(nc(=O)c7c(Cl)cccc75)C6(C)C)CC4)CC3)nn2)C(C)(C)C)cc1 ; measured DC50: < 100 nM

Documented DC50 of Cc1cc(C(C(=O)N2C[C@H](O)C[C@H]2C(=O)N[C@@H](CCN2CCC(c3cccc4c3C(C)(C)c3nc(=O)c5c(Cl)cccc5n3-4)CC2)c2ccc(-c3scnc3C)cc2)C(C)C)on1 (stereo partly shown) [Compound B165] : 100 to 500 nM

Noted for Cc1cc(C(C(=O)N2C[C@H](O)C[C@H]2C(=O)N[C@@H](CCN2CCC(c3cccc4c3C(C)(C)c3nc(=O)c5c(Cl)cccc5n3-4)CC2)c2ccc(-c3scnc3C)cc2)C(C)C)on1 (stereo partly shown) [Compound B152] : its DC50 reads < 100 nM

// sample Cc1cc(-c2scnc2C)ccc1[C@H](C)NC(=O)[C@@H]1C[C@@H](O)CN1C(=O)[C@@H](n1cc([C@H]2CC[C@H](CN3CCC(c4ccc5c(c4)-n4c(nc(=O)c6c(Cl)cccc64)C5(C)C)CC3)CC2)nn1)C(C)(C)C , its DC50 was < 100 nM

Count: 8. Required value per item: DC50.
1. Cc1ncsc1-c1ccc([C@H](C)NC(=O)[C@@H]2C[C@@H](O)CN2C(=O)[C@H](C(C)C)n2cc(CCCCCN3CCC(c4ccc5c(c4)-n4c(nc(=O)c6c(Cl)cccc64)C5(C)C)CC3)nn2)cc1
2. Cc1ncsc1-c1ccc([C@H](C)NC(=O)[C@@H]2C[C@@H](O)CN2C(=O)[C@@H](NC(=O)CCCn2cc(-c3ccc4c(c3)-n3c(nc(=O)c5c(Cl)cccc53)C4(C)C)cn2)C(C)(C)C)cc1
3. Cc1ncsc1-c1ccc([C@H](C)NC(=O)[C@@H]2C[C@@H](O)CN2C(=O)[C@@H](n2cc([C@H]3CC[C@H](CN4CCC(c5ccc6c(c5)-n5c(nc(=O)c7c(Cl)cccc75)C6(C)C)CC4)CC3)nn2)C(C)(C)C)cc1
4. Cc1ncsc1-c1ccc([C@H](C)NC(=O)[C@@H]2C[C@@H](O)CN2C(=O)[C@@H](NC(=O)CCn2cc(-c3ccc4c(c3)C(C)(C)c3nc(=O)c5c(Cl)cccc5n3-4)cn2)C(C)(C)C)cc1
5. Cc1ncsc1-c1ccc([C@H](CC(=O)NCC2CCC(N3CCC(c4ccc5c(c4)-n4c(nc(=O)c6c(Cl)cccc64)C5(C)C)CC3)CC2)NC(=O)[C@@H]2C[C@@H](O)CN2C(=O)[C@@H](NC(=O)C2(F)CC2)C(C)(C)C)cc1 (stereo partly shown) [Compound B53]
6. Cc1ncsc1-c1ccc([C@H](CCCCCN2CCC(c3ccc4c(c3)C(C)(C)c3nc(=O)c5c(Br)cccc5n3-4)CC2)NC(=O)[C@@H]2C[C@@H](O)CN2C(=O)[C@@H](NC(=O)C2(F)CC2)C(C)(C)C)cc1
7. Cc1ncsc1-c1ccc([C@H](CC(=O)NCCN2CCC(c3ccc4c(c3)-n3c(nc(=O)c5c(Cl)cccc53)C4(C)C)CC2)NC(=O)[C@@H]2C[C@@H](O)CN2C(=O)[C@@H](NC(=O)C2(F)CC2)C(C)(C)C)cc1
8. Cc1cc(C(C(=O)N2C[C@H](O)C[C@H]2C(=O)N[C@@H](CN2CCC(c3cccc4c3C(C)(C)c3nc(=O)c5c(Cl)cccc5n3-4)CC2)c2ccc(-c3scnc3C)cc2)C(C)C)on1 (stereo partly shown) [Compound B154]

## Result
1: < 100 nM; 2: > 1000 nM; 3: < 100 nM; 4: > 1000 nM; 5: 100 to 500 nM; 6: < 100 nM; 7: 100 to 500 nM; 8: < 100 nM

Report DC50 for each item below.
1. Cc1ncsc1-c1ccc([C@H](C)NC(=O)[C@@H]2C[C@@H](O)CN2C(=O)[C@@H](c2cc(N3CCC(CN4CCC(c5cccc6c5C(C)(C)c5nc(=O)c7c(Cl)cccc7n5-6)CC4)CC3)no2)C(C)C)cc1
2. Cc1ncsc1-c1ccc([C@H](CCCCCN2CCC(c3ccc4c(c3)C(C)(C)c3nc(=O)c5c(Br)cccc5n3-4)CC2)NC(=O)[C@@H]2C[C@@H](O)CN2C(=O)[C@@H](NC(=O)C2(C#N)CC2)C(C)(C)C)cc1
3. Cc1ncsc1-c1ccc([C@H](C)NC(=O)[C@@H]2C[C@@H](O)CN2C(=O)[C@H](C(C)C)n2cc([C@H]3CC[C@H](CN4CCC(c5ccc6c(c5)C(C)(C)c5nc(=O)c7c(Cl)cccc7n5-6)CC4)CC3)nn2)cc1
4. C[C@H](NC(=O)[C@@H]1C[C@@H](O)CN1C(=O)[C@@H](n1cc(C2CCC(CN3CCC(c4ccc5c(c4)-n4c(nc(=O)c6c(Cl)cccc64)C54CCCCC4)CC3)CC2)nn1)C(C)(C)C)c1ccc(-c2scnc2CCCN2CCOCC2)cc1 (stereo partly shown)

## Result
["< 100 nM", "< 100 nM", "< 100 nM", "100 to 500 nM"]

Dear reader, for each entry below, please note its DC50.
1. Cc1ncsc1-c1ccc([C@H](C)NC(=O)[C@@H]2C[C@@H](O)CN2C(=O)[C@@H](NC(=O)CCN2CCC(c3ccc4c(c3)-n3c(nc(=O)c5c(Cl)cccc53)C4(C)C)CC2)C(C)(C)C)cc1
2. Cc1ncsc1-c1ccc([C@H](C)NC(=O)[C@@H]2C[C@@H](O)CN2C(=O)[C@H](C(C)C)n2cc([C@H]3CC[C@H](CN4CCC(c5cccc6c5C(C)(C)c5nc(=O)c7c(Cl)cccc7n5-6)CC4)CC3)nn2)cc1

## Result
1: > 1000 nM; 2: < 100 nM
